Data provenance: ChEMBL document CHEMBL1135126

# Test system: Cryptococcus neoformans
# procedure_summary: Concentration that substantially inhibit the growth of Cryptococcus neoformans
# Assay type: functional
Where a SMILES comes first, the peptide text is derived from it. [ ]: non-standard residue; d: D form.
endpoint_name: MIC (µM)
The response must be a number in µM with no trailing unit.

Qu. Note down MIC recorded for CC[C@H](C)[C@H](NC(=O)[C@@H](Cc1ccccc1)NC(=O)[C@@H](Cc1c[nH]c2ccccc12)NC(=O)[C@@H](N)CCCN=C(N)N)C(=O)N[C@H](Cc1ccccc1)C(=O)N[C@@H](Cc1c[nH]cn1)C(=O)N[C@@H](CCCCN)C(=O)N[C@@H](CCCCN)C(=O)N[C@@H](C)C(N)=O
Ans. 2.48

Qu. Respond only with MIC recorded for CC[C@H](C)[C@H](NC(=O)[C@@H](Cc1ccccc1)NC(=O)[C@@H](Cc1c[nH]c2ccccc12)NC(=O)[C@@H](N)CCCN=C(N)N)C(=O)N[C@H](Cc1ccccc1)C(=O)N[C@@H](Cc1c[nH]cn1)C(=O)N[C@@H](CCCCN)C(=O)N[C@@H](CCCN=C(N)N)C(=O)N[C@@H](CC(=O)O)C(N)=O
Ans. 4.79

Qu. Quote MIC reported for CC[C@H](C)[C@H](NC(=O)[C@@H](Cc1ccccc1)NC(=O)[C@@H](Cc1c[nH]c2ccccc12)NC(=O)[C@@H](N)CCCN=C(N)N)C(=O)N[C@H](Cc1ccccc1)C(=O)N[C@@H](Cc1c[nH]cn1)C(=O)N[C@@H](CCCCN)C(=O)N[C@@H](CCCCN)C(=O)N[C@H](C(N)=O)C(C)C please.
Ans. 2.43

Qu. Write down MIC measured for item CC[C@H](C)[C@H](NC(=O)[C@@H](Cc1ccccc1)NC(=O)[C@@H](Cc1c[nH]c2ccccc12)NC(=O)[C@@H](N)CCCN=C(N)N)C(=O)N[C@H](Cc1ccccc1)C(=O)N[C@@H](Cc1c[nH]cn1)C(=O)N[C@@H](CCCCN)C(=O)N[C@@H](CCCCN)C(=O)N[C@@H](CCSC)C(N)=O
Ans. 2.37

Qu. Retrieve MIC measured for NCCCC[C@H](NC(=O)[C@@H](Cc1ccccc1)NC(=O)[C@H](Cc1ccccc1)NC(=O)[C@@H](Cc1ccccc1)NC(=O)[C@@H](Cc1c[nH]c2ccccc12)NC(=O)[C@@H](N)Cc1c[nH]cn1)C(N)=O (H-H[dW][dF]F[dF]K-NH2) and print it.
Ans. 6.81

Qu. Item CC[C@H](C)[C@H](NC(=O)[C@@H](Cc1ccccc1)NC(=O)[C@@H](Cc1c[nH]c2ccccc12)NC(=O)[C@@H](N)CCCN=C(N)N)C(=O)N[C@H](Cc1ccccc1)C(=O)N[C@@H](Cc1c[nH]cn1)C(=O)N[C@@H](CCCCN)C(=O)N[C@@H](CCCCN)C(=O)N[C@@H](CCCN=C(N)N)C(N)=O : provide MIC
Ans. 2.32

====

# Tested on: Cryptococcus neoformans
# procedure_summary: Concentration that substantially inhibit the growth of Cryptococcus neoformans
# Type: functional
Would you mind telling me the reported MIC of each entry?
// return the numeric value with its unit appended

Qu. Return MIC for the following molecule: CC[C@H](C)[C@H](NC(=O)[C@@H](Cc1ccccc1)NC(=O)[C@@H](Cc1c[nH]c2ccccc12)NC(=O)[C@@H](N)CCCN=C(N)N)C(=O)N[C@H](Cc1ccccc1)C(=O)N[C@@H](Cc1c[nH]cn1)C(=O)N[C@@H](CCCCN)C(=O)N[C@@H](CCCN=C(N)N)C(=O)N1CCC[C@H]1C(N)=O
Ans. 2.42 µM

Qu. Let me know recorded MIC for CC[C@H](C)[C@H](NC(=O)[C@@H](Cc1ccccc1)NC(=O)[C@@H](Cc1c[nH]c2ccccc12)NC(=O)[C@@H](N)CCCN=C(N)N)C(=O)N[C@H](Cc1ccccc1)C(=O)N[C@@H](Cc1c[nH]cn1)C(=O)N[C@@H](CCCCN)C(=O)N[C@@H](CCCCN)C(=O)N[C@@H](CO)C(N)=O , thanks.
Ans. 2.45 µM
